src = PubChem BioAssay (Tox21)

# experimentSummary: qHTS assay to identify small molecule agonists of the progesterone receptor (PR) signaling pathway - cell viability counter screen (AID 1346799); further: nearly all actives have a fitted effect of over 45% in size
# statedConditions: PR-UAS-bla HEK293T viability, CellTiter-Glo luminescence, 16 h; series mostly up to 92.4 µM
Inconclusive results are not listed. Active and inactive are the calls of the source. The call rests on the fitted dose curve.
Give your call using only these classes: yes for active, no for inactive

Completed entries (count: 5):
{"columns": ["compound", "discreteLabel"],
 "data": [
  ["O=c1[nH]cnc2nc[nH]c12", "no"],
  ["CC(C)=CCOc1ccc(/C=C/C(=O)c2ccc(OCC=C(C)C)cc2OCC(=O)O)cc1", "no"],
  ["Cc1onc(-c2c(Cl)cccc2Cl)c1C(=O)N[C@@H]1C(=O)N2[C@@H]1SC(C)(C)[C@@H]2C(=O)O", "no"],
  ["CCCCN(CCCC)c1ccc(C(=O)c2ccccc2C(=O)O)c(O)c1", "yes"],
  ["O=[N+]([O-])c1cc(Cl)c(Cl)c(Cl)c1Cl", "no"]
]}

Test call for this compound, please: CC(=O)OCC(C)OC(C)=O (stereo not drawn) no

Test call, this compound: COC(=O)c1cc(Cl)ccc1OC no

Record lookup: outcome of this test for NC(=O)N1C(=O)C(C(=O)c2cc(Cl)cs2)c2cc(F)c(Cl)cc21 (stereo not drawn) ? yes

Hello, I am checking results. What call was entered for Clc1ccc2cc3ccccc3cc2c1 ? no

Fill in: this test's call for Cc1cc(N)c(S(=O)(=O)O)cc1Cl is ___ no

Assay outcome for CCCC1O[C@@H]2C[C@H]3[C@@H]4CCC5=CC(=O)C=C[C@]5(C)[C@H]4[C@@H](O)C[C@]3(C)[C@]2(C(=O)CO)O1 (stereo partly drawn) : what was it? no

Which outcome was assigned to CSc1ccc(/C=C2/C(C)=C(CC(=O)O)c3cc(F)ccc32)cc1 in this test? no

I'd appreciate the recorded outcome for [Cl][Bi]([Cl])([c]1ccccc1)([c]1ccccc1)[c]1ccccc1 from this test. yes
